test summary: Cytotoxicity against HepG2 cells
Format: cell-based
experimental parameters: human, HepG2 cells; read-out: Cytotoxicity HepG2 EC50
Recorded pEC50 by entry
Keep in mind that pEC50 stands for -log10 of concentration in molar terms.

COc1cc(OC)c(C(=O)Nc2cc(C(F)(F)F)cc(NC(=O)c3cccc(C#N)c3)c2SCCN)cc1C(=O)Nc1cc(C(F)(F)F)cc(NC(=O)c2cccc(C#N)c2)c1SCCN    3.07
c1nc(-c2ccc(N3CCNCC3)cc2)cc(-c2ccc(N3CCNCC3)cc2)n1    3.33
NCCCOc1cccc(-n2cc(-c3ccc4ccc(-c5cn(-c6cccc(OCCCN)c6)nn5)cc4c3)nn2)c1    3.30
CC1(C)c2cc(-c3cccc(CCNC(=N)N)c3)ccc2-c2ccc(-c3cccc(CCNC(=N)N)c3)cc21    4.55

What measured pEC50 goes with `N#Cc1cccc(C(=O)Nc2cc(C(F)(F)F)cc(NC(=O)c3cc(C(=O)Nc4cc(C(F)(F)F)cc(NC(=O)c5cccc(C#N)c5)c4SCCN)ncn3)c2SCCN)c1` ?
4.57

What measured pEC50 goes with `c1cc(-c2ccc(N3CCNCC3)nc2)cc(-c2ccc(N3CCNCC3)nc2)c1` ?
3.66

What measured pEC50 goes with `NCCSc1c(NC(=O)c2cc(C(=O)Nc3cc(C(F)(F)F)cc(NC(=O)c4ccc(Cl)cc4Cl)c3SCCN)ncn2)cc(C(F)(F)F)cc1NC(=O)c1ccc(Cl)cc1Cl` ?
3.08

What measured pEC50 goes with `FC(F)(F)c1ccc(CN2CCNCC2)cc1Oc1ccc(Oc2cc(CN3CCNCC3)ccc2C(F)(F)F)cc1` ?
4.54

What measured pEC50 goes with `NCCSc1c(NC(=O)c2cccc(Br)c2)cc(C(F)(F)F)cc1NC(=O)c1cc(C(=O)Nc2cc(C(F)(F)F)cc(NC(=O)c3cccc(Br)c3)c2SCCN)ncn1` ?
3.09

What measured pEC50 goes with NC1CCC(Oc2ccc(NC(=O)c3cc(C(=O)Nc4ccc(OC5CCC(N)CC5)cc4)ncn3)cc2)CC1 (stereo not shown) ?
4.43

What measured pEC50 goes with `NCCCOc1cccc(-n2cc(-c3cccc(-c4cn(-c5cccc(OCCCN)c5)nn4)c3)nn2)c1` ?
4.11
